# Assay Info: Hemolytic activity in human erythrocytes at 100 ug/ml after 30 mins relative to control
# Assay type: ADME, cell-based, Erythrocyte
# Reported Conditions: read-out: Activity
Non-standard residues stand in square brackets, D forms with d. Residues, ends and D or L forms follow the SMILES beside them. Orn = NCCC[C@H](N)C(=O)O
Endpoint Label: hemolysis at 0.5 h, 100 ug/ml (%)

| Compound | Endpoint Label | Units Of Measure | Assay Value |
| --- | --- | --- | --- |
| CC(C)C[C@@H]1NC(=O)[C@H](CCCN)NC(=O)[C@H](C(C)C)NC(=O)[C@@H]2CCCN2C(=O)[C@@H](Cc2ccccc2)NC(=O)[C@H](CC(C)C)NC(=O)[C@H](CCCN)NC(=O)[C@H](C(C)C)NC(=O)[C@@H]2CCCN2C(=O)[C@@H](Cc2ccccc2)NC1=O (cyclo(L[dF]PV[Orn]L[dF]PV[Orn])) | hemolysis at 0.5 h, 100 ug/ml | % | 83 |

Data provenance: ChEMBL document CHEMBL4196049
